- Assayed Target: human Gastric Inhibitory Peptide Receptor (GIPR) (human) (UniProt P48546)
- Sequence (P48546 22-466 limits assumed): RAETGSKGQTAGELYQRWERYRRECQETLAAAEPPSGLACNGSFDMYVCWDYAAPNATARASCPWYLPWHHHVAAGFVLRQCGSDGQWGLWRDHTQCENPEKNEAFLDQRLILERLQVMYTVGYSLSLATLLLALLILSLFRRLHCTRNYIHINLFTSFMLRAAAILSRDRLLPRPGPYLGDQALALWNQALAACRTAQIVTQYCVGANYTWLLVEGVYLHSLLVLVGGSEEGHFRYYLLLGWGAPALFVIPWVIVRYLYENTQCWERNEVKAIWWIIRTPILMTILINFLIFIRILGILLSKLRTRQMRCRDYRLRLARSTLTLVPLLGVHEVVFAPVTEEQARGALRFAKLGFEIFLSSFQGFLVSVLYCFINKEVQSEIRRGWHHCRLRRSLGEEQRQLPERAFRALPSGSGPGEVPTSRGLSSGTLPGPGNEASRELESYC
- Protocol Notes: FACS competition vs biotinylated GIP-057 on CHO-K1-hGIPR cells; category B: pIC50 7.1-8.0
*1 amine or outer side, *2 acyl side, *3 side chain or, on linkers, in order; H or OH if unused. Bridges are numbered along the chain shown (N, C = ends). [ ]: non-standard residue; d: D form. The star is where a group is joined. Ttds = 1,13-diamino-4,7,10-trioxatridecan-succinamic acid, NCCCOCCOCCOCCCNC(=O)CCC(=O)*; DOTA = O=C(O)CN1CCN(CC(=O)O)CCN(CC(=O)*)CCN(CC(=O)O)CC1; Trp(5-Cl) = N[C@@H](Cc1c[nH]c2ccc(Cl)cc12)C(=O)O; Phe(3,5-Cl2) = N[C@@H](Cc1cc(Cl)cc(Cl)c1)C(=O)O; Pyridine(2,6-diCH2) = c1cc(C[*:1])nc(C[*:2])c1; Phe(2-Cl) = N[C@@H](Cc1ccccc1Cl)C(=O)O; Hyp = O=C(O)[C@@H]1C[C@@H](O)CN1; Thp = NC1(C(=O)O)CCOCC1
For each record, write down the corresponding pIC50.

// solved cases for pIC50 follow
Binder: Ac-D[Phe(2-Cl)][Trp(5-Cl)][Hyp]E[dL]C[Thp]LIC-NH2 (linker 7-11 via Pyridine(2,6-diCH2)) [Ac-Asp-Ocf-5Clw-Hyp-Glu-leu-[Cys(2Lut)-Thp-Leu-Ile-Cys]-NH2]
Property Name: pIC50
Reported Result: 7.1 to 8 pic50

Binder: {DOTA-Ttds}-DW[Phe(3,5-Cl2)][Hyp]E[dL]C[Thp]LIC-NH2 (linker 7-11 via Pyridine(2,6-diCH2)) [DOTA-Ttds-Asp-Trp-Egn-Hyp-Glu-leu-[Cys(2Lut)-Thp-Leu-Ile-Cys]-NH2]
Property Name: pIC50
Reported Result: 7.1 to 8 pic50

Report pIC50 for Ac-DW[Trp(5-Cl)][Hyp]F[dL]C[Thp]LIC-NH2 (linker 7-11 via Pyridine(2,6-diCH2)) [Ac-Asp-Trp-5Clw-Hyp-Phe-leu-[Cys(2Lut)-Thp-Leu-Ile-Cys]-NH2]
7.1 to 8 pic50

// data source = patent US20250296971A1
